assayedSystem: Delta-type opioid receptor (Mus musculus)
Sequence (P32300 whole entry): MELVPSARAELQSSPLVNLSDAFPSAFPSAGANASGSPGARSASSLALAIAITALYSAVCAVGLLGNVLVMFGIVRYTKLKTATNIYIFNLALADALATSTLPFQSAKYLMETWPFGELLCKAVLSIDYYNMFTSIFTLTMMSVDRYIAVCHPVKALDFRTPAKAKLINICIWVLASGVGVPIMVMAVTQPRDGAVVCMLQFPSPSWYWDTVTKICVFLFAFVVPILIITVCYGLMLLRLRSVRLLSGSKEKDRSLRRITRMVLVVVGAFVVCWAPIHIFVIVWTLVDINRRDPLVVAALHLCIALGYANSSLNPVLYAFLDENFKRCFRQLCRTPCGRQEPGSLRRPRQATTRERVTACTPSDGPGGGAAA
assayInfo: Inhibitory activity contractions of electrically stimulated mouse vas deferens was determined
Format: functional, tissue-based
runParameters: read-out: Log 1/IC50 (converted)
Residues, ends and D or L forms follow the SMILES beside them.
measuredMetric: IC50 (nM)
Answer with a number only, understood to be in nM.

Answered examples (2):
* CC(C)C[C@H](NC(=O)[C@H](CC12CC3CC(CC(C3)C1)C2)NC(=O)CNC(=O)[C@H](C)NC(=O)[C@@H](N)Cc1ccc(O)cc1)C(N)=O (HELM PEPTIDE1{Y.A.G.[O=C([C@H](CC12CC3CC(CC(C3)C1)C2)N[*:1])[*:2]].L.[am]}$$$$V2.0) | 2950
* C[C@H](NC(=O)[C@@H](N)Cc1ccc(O)cc1)C(=O)NCC(=O)N[C@@H](Cc1ccccc1)C(=O)N[C@H](C(N)=O)C(C)(C)C (HELM PEPTIDE1{Y.A.G.F.[CC(C)(C)[C@H](N[*:1])C(=O)[*:2]].[am]}$$$$V2.0) | 9.77

Q: Quick one: IC50 for C[C@H](NC(=O)[C@@H](N)Cc1ccc(O)cc1)C(=O)NCC(=O)N[C@@H](Cc1ccccc1)C(=O)N[C@@H](CC12CC3CC(CC(C3)C1)C2)C(N)=O (HELM PEPTIDE1{Y.A.G.F.[O=C([C@H](CC12CC3CC(CC(C3)C1)C2)N[*:1])[*:2]].[am]}$$$$V2.0) ?
Ans: 50.1

Q: Proceed to `C[C@H](NC(=O)[C@@H](N)Cc1ccc(O)cc1)C(=O)NCC(=O)N[C@@H](Cc1ccc([N+](=O)[O-])cc1)C(=O)N[C@@H](CC12CC3CC(CC(C3)C1)C2)C(N)=O`
Ans: 20.4

Q: Proceed to `COc1ccc(C[C@H](N)C(=O)N[C@@H](C)C(=O)NCC(=O)N[C@@H](Cc2ccc([N+](=O)[O-])cc2)C(=O)N[C@@H](CCSC)C(N)=O)cc1`
Ans: 3.16

====

Reported IC50 values follow for various compounds
Species on record: Cavia porcellus
assayInfo: Inhibitory activity for contractions of electrically stimulated guinea pig ileum was determined
Format: functional, organism-based
runParameters: read-out: Log 1/IC50 (converted)
Residues, ends and D or L forms follow the SMILES beside them.
Answer with a number only, understood to be in nM.

* CC(C)C[C@H](NC(=O)[C@H](CC12CC3CC(CC(C3)C1)C2)NC(=O)CNC(=O)[C@H](C)NC(=O)[C@@H](N)Cc1ccc(O)cc1)C(N)=O (HELM PEPTIDE1{Y.A.G.[O=C([C@H](CC12CC3CC(CC(C3)C1)C2)N[*:1])[*:2]].L.[am]}$$$$V2.0) | 1000

Would you kindly look at the next entry?
Q: Quick one: IC50 for C[C@H](NC(=O)[C@@H](N)Cc1ccc(O)cc1)C(=O)NCC(=O)N[C@@H](Cc1ccccc1)C(=O)N[C@H](C(N)=O)C(C)(C)C (HELM PEPTIDE1{Y.A.G.F.[CC(C)(C)[C@H](N[*:1])C(=O)[*:2]].[am]}$$$$V2.0) ?
Ans: 11.7

====

Species on record: Cavia porcellus
assayInfo: Inhibitory activity for contractions of electrically stimulated guinea pig ileum was determined
Assay type: functional, organism-based
runParameters: read-out: Log 1/IC50 (converted)
Non-standard residues stand in square brackets, D forms with d. Residues, ends and D or L forms follow the SMILES beside them. Cha = N[C@@H](CC1CCCCC1)C(=O)O
measuredMetric: IC50 (nM)
Answer with a number only, understood to be in nM.

Answered examples (2):
- CC(C)C[C@H](NC(=O)[C@H](Cc1ccc([N+](=O)[O-])cc1)NC(=O)CNC(=O)[C@H](C)NC(=O)[C@@H](N)Cc1ccc(O)cc1)C(N)=O: 3.16
- CC(C)C[C@H](NC(=O)[C@H](CC1CCCCC1)NC(=O)CNC(=O)[C@H](C)NC(=O)[C@@H](N)Cc1ccc(O)cc1)C(N)=O (HELM PEPTIDE1{Y.A.G.[Cha].L.[am]}$$$$V2.0): 91.2

Would you kindly look at the next entry?
Q: Quick one: IC50 for COc1ccc(C[C@H](N)C(=O)N[C@@H](C)C(=O)NCC(=O)N[C@@H](CC2CCCCC2)C(=O)N[C@@H](CCSC)C(N)=O)cc1 (H-Y(Me)AG[Cha]M-NH2) ?
Ans: 72.4
